Target: BuChE from equine serum (Equus caballus)
Construct: Butyrylcholinesterase (BuChE, from equine serum, Aladdin, Shanghai, China)
Sequence (P81908 whole entry): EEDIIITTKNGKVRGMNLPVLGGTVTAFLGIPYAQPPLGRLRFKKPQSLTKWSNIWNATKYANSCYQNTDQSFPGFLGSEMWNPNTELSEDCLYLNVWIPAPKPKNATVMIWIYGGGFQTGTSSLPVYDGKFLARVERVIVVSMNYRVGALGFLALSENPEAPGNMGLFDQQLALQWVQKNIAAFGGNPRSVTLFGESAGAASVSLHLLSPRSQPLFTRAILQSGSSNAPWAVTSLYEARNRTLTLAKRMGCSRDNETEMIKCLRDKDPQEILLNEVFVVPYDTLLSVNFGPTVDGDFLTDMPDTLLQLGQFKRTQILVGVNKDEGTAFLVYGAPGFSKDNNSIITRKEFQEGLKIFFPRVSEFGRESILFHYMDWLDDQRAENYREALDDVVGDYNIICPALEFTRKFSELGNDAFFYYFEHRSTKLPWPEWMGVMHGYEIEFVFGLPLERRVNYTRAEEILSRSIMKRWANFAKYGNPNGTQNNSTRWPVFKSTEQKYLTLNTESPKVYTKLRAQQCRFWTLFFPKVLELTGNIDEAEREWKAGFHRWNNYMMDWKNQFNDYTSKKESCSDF
Assay: biochemical
Conditions: BuChE from equine serum; mean ± SD (n=3)
Threshold-based label: IC50 under 1 µM gives Criterion met, IC50 not under 1 µM gives Criterion not met.

Solved entries:
>  <Compound>
COc1ccccc1C(=O)Nc1ccc(-c2cc3cccc(OC)c3oc2=O)cc1 [Compound 4q]

>  <Tested On>
BuChE from equine serum (Equus caballus)

>  <Class>
Criterion not met

$$$$
>  <Compound>
COc1cccc2cc(-c3ccc(NC(=O)c4cccc(F)c4)cc3)c(=O)oc12 [Compound 4j]

>  <Tested On>
BuChE from equine serum (Equus caballus)

>  <Class>
Criterion met

$$$$
>  <Compound>
Cc1ccc(C(=O)Nc2ccc(-c3cc4ccc(O)cc4oc3=O)cc2)cc1 [Compound 4c]

>  <Tested On>
BuChE from equine serum (Equus caballus)

>  <Class>
Criterion not met

$$$$
>  <Compound>
O=C(Nc1ccc(-c2cc3ccc(O)c(O)c3oc2=O)cc1)c1ccc(CCl)cc1 [Compound 4s]

>  <Tested On>
BuChE from equine serum (Equus caballus)

>  <Class>
Criterion not met

$$$$

Next compound, please.
## Task For COc1cccc2cc(-c3ccc(NC(=O)c4cccc(Cl)c4)cc3)c(=O)oc12 [Compound 4n] , is the recorded IC50 below the cut-off of 1 µM?
## Result Criterion met

====

Target: AChE from Electrophorus electricus (Electrophorus electricus)
Construct: purchased Macklin
Sequence (O42275 24-633): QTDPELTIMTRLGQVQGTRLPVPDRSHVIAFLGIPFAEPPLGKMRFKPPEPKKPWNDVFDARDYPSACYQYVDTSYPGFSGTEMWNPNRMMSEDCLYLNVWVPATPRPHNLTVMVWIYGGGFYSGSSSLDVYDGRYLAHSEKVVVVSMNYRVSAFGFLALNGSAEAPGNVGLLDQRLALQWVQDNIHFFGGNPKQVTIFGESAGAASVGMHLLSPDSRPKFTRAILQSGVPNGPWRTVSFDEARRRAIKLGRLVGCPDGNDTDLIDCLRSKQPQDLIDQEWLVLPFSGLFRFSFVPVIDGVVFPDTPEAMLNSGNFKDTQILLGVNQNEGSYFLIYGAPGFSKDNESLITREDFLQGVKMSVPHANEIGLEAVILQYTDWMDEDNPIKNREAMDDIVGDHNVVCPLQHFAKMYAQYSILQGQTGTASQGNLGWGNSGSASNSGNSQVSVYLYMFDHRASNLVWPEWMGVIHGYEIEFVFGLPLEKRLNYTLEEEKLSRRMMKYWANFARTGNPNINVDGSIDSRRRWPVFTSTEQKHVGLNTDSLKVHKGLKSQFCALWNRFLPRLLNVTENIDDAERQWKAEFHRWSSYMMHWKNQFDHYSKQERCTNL
Assay: biochemical
Format: biochemical
Conditions: IC50 BuChE/IC50 AChE
Label NO if SI: selectivity index (IC50 BuChE/IC50 AChE) falls below 0.2; label YES in every other case.

Answered examples (7):
>  <Entry Smiles>
COc1ccccc1C(=O)Nc1ccc(-c2cc3cccc(OC)c3oc2=O)cc1

>  <Tested On>
AChE from Electrophorus electricus (Electrophorus electricus)

>  <Class>
YES

$$$$
>  <Entry Smiles>
COc1cccc2cc(-c3ccc(NC(=O)c4ccc(C(F)(F)F)cc4)cc3)c(=O)oc12

>  <Tested On>
AChE from Electrophorus electricus (Electrophorus electricus)

>  <Class>
YES

$$$$
>  <Entry Smiles>
Cc1cc(C)cc(C(=O)Nc2ccc(-c3cc4ccc(O)cc4oc3=O)cc2)c1

>  <Tested On>
AChE from Electrophorus electricus (Electrophorus electricus)

>  <Class>
NO

$$$$
>  <Entry Smiles>
COc1cccc2cc(-c3ccc(NC(=O)c4ccc(F)cc4)cc3)c(=O)oc12

>  <Tested On>
AChE from Electrophorus electricus (Electrophorus electricus)

>  <Class>
NO

$$$$
>  <Entry Smiles>
O=C(Nc1ccc(-c2cc3ccc(O)cc3oc2=O)cc1)c1ccc(CCl)cc1

>  <Tested On>
AChE from Electrophorus electricus (Electrophorus electricus)

>  <Class>
NO

$$$$
>  <Entry Smiles>
COc1cccc2cc(-c3ccc(NC(=O)c4ccc(CCl)cc4)cc3)c(=O)oc12

>  <Tested On>
AChE from Electrophorus electricus (Electrophorus electricus)

>  <Class>
YES

$$$$
>  <Entry Smiles>
COc1cccc2cc(-c3ccc(NC(=O)c4ccco4)cc3)c(=O)oc12

>  <Tested On>
AChE from Electrophorus electricus (Electrophorus electricus)

>  <Class>
NO

$$$$

## Task Would you say O=C(Nc1ccc(-c2cc3ccc(O)cc3oc2=O)cc1)c1ccc(Cl)cc1 shows SI: selectivity index (IC50 BuChE/IC50 AChE) at minimum 0.2?
## Result NO
